Biological target: human FAAH (Homo sapiens)
Sequence (O00519 1-579): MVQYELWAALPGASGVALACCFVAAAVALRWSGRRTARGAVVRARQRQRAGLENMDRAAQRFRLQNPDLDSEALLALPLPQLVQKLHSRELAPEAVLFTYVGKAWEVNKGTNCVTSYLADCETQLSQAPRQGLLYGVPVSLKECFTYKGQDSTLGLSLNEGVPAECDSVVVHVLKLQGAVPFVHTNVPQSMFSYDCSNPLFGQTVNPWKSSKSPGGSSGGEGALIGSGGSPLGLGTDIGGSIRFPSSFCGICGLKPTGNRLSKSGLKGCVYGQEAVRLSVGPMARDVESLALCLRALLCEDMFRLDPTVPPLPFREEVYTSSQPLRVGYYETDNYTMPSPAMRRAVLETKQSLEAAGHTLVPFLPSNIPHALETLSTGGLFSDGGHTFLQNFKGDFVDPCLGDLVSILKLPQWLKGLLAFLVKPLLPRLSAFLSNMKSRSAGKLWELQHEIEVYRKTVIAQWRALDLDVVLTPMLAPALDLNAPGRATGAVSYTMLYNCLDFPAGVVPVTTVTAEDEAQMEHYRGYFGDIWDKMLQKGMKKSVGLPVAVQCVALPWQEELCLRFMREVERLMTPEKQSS
pKi: −log10 of the molar value.
Readout kind: pKi

Reference set (5 entries):
Compound | Tgt | pKi
CC(Cc1ccccc1)n1ccc2cc(B(O)O)ccc2c1=O (stereo not drawn) | human FAAH (Homo sapiens) | 7.00 to 8.00
Cn1ccc2cc(B(O)O)ccc2c1=O | human FAAH (Homo sapiens) | 7.00 to 8.00
O=c1c2ccc(B(O)O)cc2ccn1CCc1ccccc1 | human FAAH (Homo sapiens) | ≥ 8.00
O=c1c2ccc(B(O)O)cc2ncn1CCc1ccccc1 | human FAAH (Homo sapiens) | ≥ 8.00
CC(c1ccccc1)n1ccc2cc(B(O)O)ccc2c1=O (stereo not drawn) | human FAAH (Homo sapiens) | 7.00 to 8.00

// next item, pKi requested
[in] // lookup pKi | system=human FAAH (Homo sapiens) | key= O=c1c2ccc(B(O)O)cc2ccn1Cc1ccccc1
[out] 7.00 to 8.00

====

Protein target, amino acids: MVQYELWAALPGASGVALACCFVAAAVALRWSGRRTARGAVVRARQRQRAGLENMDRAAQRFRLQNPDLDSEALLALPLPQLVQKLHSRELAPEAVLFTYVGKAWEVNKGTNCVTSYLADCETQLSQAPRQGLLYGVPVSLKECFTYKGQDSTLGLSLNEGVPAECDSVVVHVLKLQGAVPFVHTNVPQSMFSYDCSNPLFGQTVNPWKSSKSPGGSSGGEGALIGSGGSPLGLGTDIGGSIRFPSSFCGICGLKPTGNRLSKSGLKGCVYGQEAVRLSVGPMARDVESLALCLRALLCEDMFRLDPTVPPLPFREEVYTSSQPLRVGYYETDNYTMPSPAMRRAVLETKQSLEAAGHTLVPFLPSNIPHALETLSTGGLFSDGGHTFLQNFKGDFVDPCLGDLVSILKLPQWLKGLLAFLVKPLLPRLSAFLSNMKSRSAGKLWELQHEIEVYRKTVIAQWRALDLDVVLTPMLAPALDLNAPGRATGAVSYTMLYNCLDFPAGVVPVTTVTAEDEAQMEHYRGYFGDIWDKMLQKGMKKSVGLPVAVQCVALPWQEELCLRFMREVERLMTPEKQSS
pKi: −log10 of the molar value.
Readout kind: pKi

Use the examples below as a reference point.
Molecule | pKi
O=C1c2ccc(B(O)O)cc2CN1CCc1ccccc1 [Compound 15] | ≥ 8.00
O=c1c2ccc(B(O)O)cc2cnn1CCc1ccccc1 [Compound 13] | ≥ 8.00

Let us move to another entry and its pKi.
[in] Given the entry O=C1c2ccc(B(O)O)cc2CCN1CCc1ccccc1 [Compound 12] , report its measured pKi.
[out] ≥ 8.00
